FYI, the data here is from patent US12702692B2.

- testedSystem: TMEM16A (Mus musculus, UniProt Q8BHY3)
- Construct: expressed in transfected cells; host or cells: HEK293T
- Sequence (Q8BHY3 1-960): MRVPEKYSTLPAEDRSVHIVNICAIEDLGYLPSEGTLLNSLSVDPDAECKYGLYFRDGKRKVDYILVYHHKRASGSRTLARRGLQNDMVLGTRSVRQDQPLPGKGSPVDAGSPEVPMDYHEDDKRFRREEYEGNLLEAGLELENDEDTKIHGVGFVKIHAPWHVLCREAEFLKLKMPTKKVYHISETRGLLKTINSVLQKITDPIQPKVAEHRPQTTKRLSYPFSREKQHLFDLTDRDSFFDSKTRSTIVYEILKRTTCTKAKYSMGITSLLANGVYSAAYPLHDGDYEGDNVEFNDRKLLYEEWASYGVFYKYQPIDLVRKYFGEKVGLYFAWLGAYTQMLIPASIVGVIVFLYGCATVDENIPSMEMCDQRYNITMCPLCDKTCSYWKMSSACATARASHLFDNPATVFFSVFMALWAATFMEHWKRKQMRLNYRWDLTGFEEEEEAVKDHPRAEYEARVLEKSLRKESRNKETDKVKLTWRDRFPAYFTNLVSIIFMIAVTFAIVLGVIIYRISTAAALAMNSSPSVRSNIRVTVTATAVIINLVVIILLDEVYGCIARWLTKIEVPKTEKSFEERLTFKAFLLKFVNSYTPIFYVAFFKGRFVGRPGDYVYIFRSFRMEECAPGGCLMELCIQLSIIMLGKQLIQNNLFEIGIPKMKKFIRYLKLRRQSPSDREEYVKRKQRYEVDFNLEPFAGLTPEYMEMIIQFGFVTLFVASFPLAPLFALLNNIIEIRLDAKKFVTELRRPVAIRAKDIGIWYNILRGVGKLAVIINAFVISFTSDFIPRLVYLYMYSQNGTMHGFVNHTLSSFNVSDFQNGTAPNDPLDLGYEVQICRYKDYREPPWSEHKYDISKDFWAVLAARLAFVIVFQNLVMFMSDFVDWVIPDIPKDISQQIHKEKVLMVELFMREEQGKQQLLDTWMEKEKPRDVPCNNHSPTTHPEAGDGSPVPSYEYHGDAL
- assayProtocol: Whole-cell patch-clamp of HEK293T cells expressing TMEM16A
- Assay type: cell-based
- measurementConditions: HEK293T cells expressing TMEM16A alone; 100 μM for Nter13, S38G and rat peptides
readoutType: effect of peptide application on TMEM16A current

>>> reportedmeasurement("hS38G: hS38G peptide (SEQ ID NO: 5), N13 presenting S38G polymorphism (LARRSPRGGDGKL; hN13 S38G) [reference compound]")
"no effect"
>>> reportedmeasurement("LLAKRGRDSGPSR (SEQ ID NO: 7) (Synthetic scramble peptide) [scrambled control peptide, reference compound]")
"no effect"
